Target sequence: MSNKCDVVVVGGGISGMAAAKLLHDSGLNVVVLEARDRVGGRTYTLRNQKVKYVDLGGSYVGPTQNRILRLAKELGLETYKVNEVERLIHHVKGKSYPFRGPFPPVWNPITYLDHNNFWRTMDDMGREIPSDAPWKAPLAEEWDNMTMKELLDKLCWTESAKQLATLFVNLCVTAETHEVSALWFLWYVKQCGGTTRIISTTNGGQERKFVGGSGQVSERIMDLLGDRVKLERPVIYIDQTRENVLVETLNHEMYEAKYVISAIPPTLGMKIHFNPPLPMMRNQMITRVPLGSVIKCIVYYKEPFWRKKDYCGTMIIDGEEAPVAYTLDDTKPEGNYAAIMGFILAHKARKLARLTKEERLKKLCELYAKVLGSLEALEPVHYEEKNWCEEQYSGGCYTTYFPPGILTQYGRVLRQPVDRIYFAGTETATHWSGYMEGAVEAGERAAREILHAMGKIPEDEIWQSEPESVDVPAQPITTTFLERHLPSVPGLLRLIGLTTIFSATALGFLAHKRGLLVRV
IC50 overview

>  <molecule>
Cl.NC1CC1c1ccc(NC(=O)c2cccc(-c3cccs3)c2)cc1 (stereo not drawn)

>  <unitsLabel>
nM

>  <IC50>
366

$$$$
>  <molecule>
Cl.NC1CC1c1ccc(NC(=O)c2ccc(-c3ccsc3)cc2)cc1 (stereo not drawn)

>  <unitsLabel>
nM

>  <IC50>
67

$$$$
>  <molecule>
Cl.NC1CC1c1ccc(NC(=O)c2ccc(-c3ccoc3)cc2)cc1 (stereo not drawn)

>  <unitsLabel>
nM

>  <IC50>
93

$$$$
>  <molecule>
Cl.NC1CC1c1ccc(NC(=O)c2cccc(-c3ccco3)c2)cc1 (stereo not drawn)

>  <unitsLabel>
nM

>  <IC50>
888

$$$$
>  <molecule>
Cl.NC1CC1c1ccc(NC(=O)c2cccc(-c3ccccc3)c2)cc1 (stereo not drawn)

>  <unitsLabel>
nM

>  <IC50>
327

$$$$
>  <molecule>
Cl.NC1CC1c1ccc(NC(=O)c2cccc(-c3ccsc3)c2)cc1 (stereo not drawn)

>  <unitsLabel>
nM

>  <IC50>
820

$$$$

###

>  <molecule>
Cl.NC1CC1c1ccc(NC(=O)c2ccc(-c3ccncc3)cc2)cc1 (centres unmarked)

>  <melting point>
> 250 °C

$$$$
>  <molecule>
Cl.NC1CC1c1ccc(NC(=O)c2cccc(-c3ccncc3)c2)cc1 (centres unmarked)

>  <melting point>
> 250 °C

$$$$
>  <molecule>
Cl.NC1CC1c1ccc(NC(=O)c2cccc(-c3ccsc3)c2)cc1 (centres unmarked)

>  <melting point>
> 250 °C

$$$$
>  <molecule>
Cl.NC1CC1c1ccc(NC(=O)c2cccc(-c3cccs3)c2)cc1 (centres unmarked)

>  <melting point>
245 to 248 °C

$$$$
>  <molecule>
Cl.NC1CC1c1ccc(NC(=O)c2cccc(-c3ccccc3)c2)cc1 (centres unmarked)

>  <melting point>
> 250 °C

$$$$
>  <molecule>
Cl.NC1CC1c1ccc(NC(=O)c2cccc(-c3ccco3)c2)cc1 (centres unmarked)

>  <melting point>
208 to 210 °C

$$$$
>  <molecule>
Cl.NC1CC1c1ccc(NC(=O)c2cccc(-c3ccoc3)c2)cc1 (centres unmarked)

>  <melting point>
235 to 238 °C

$$$$
>  <molecule>
Cl.NC1CC1c1ccc(NC(=O)c2ccc(-c3cccs3)cc2)cc1 (centres unmarked)

>  <melting point>
> 250 °C

$$$$

###

Test system: LNCaP cells
Assay: MTT cell viability assay
Type: cell-based
Details: Homo sapiens, 48 h
Each entry below carries its reported IC50.
endpoint: IC50 (µM)

>  <compound>
NC1CC1c1ccc(NC(=O)c2ccc(-c3ccccc3)cc2)cc1 (stereo not shown)

>  <unitsLabel>
µM

>  <observedValue>
34.1

$$$$
>  <compound>
Cl.NC1CC1c1ccc(NC(=O)c2cccc(-c3ccoc3)c2)cc1 (stereo not shown)

>  <unitsLabel>
µM

>  <observedValue>
12.4

$$$$
>  <compound>
Cl.NC1CC1c1ccc(NC(=O)c2ccc(-c3ccsc3)cc2)cc1 (stereo not shown)

>  <unitsLabel>
µM

>  <observedValue>
26.5

$$$$
>  <compound>
Cl.NC1CC1c1ccc(NC(=O)c2cccc(-c3ccccc3)c2)cc1 (stereo not shown)

>  <unitsLabel>
µM

>  <observedValue>
22.8

$$$$
>  <compound>
Cl.NC1CC1c1ccc(NC(=O)c2cccc(-c3ccco3)c2)cc1 (stereo not shown)

>  <unitsLabel>
µM

>  <observedValue>
27.6

$$$$
>  <compound>
Cl.NC1CC1c1ccc(NC(=O)c2cccc(-c3cccs3)c2)cc1 (stereo not shown)

>  <unitsLabel>
µM

>  <observedValue>
25.7

$$$$
>  <compound>
Cl.NC1CC1c1ccc(NC(=O)c2cccc(-c3ccsc3)c2)cc1 (stereo not shown)

>  <unitsLabel>
µM

>  <observedValue>
32.1

$$$$

###

Biological target: LSD1-CoREST complex (Homo sapiens)
Test: LSD1-CoREST inhibition assay (Amplex UltraRed/HRP, H3K4 peptide)
Settings: mean ± SD from two experiments in duplicate; 10 min preincubation
pIC50: −log10 of the molar value.
Please assign a class to every record based on measured pIC50, with ranges bottom bin: < 6; middle bin: ≥ 6 and < 7; top bin: ≥ 7

>  <compound>
Cl.NC1CC1c1ccc(NC(=O)c2ccc(-c3ccsc3)cc2)cc1 (stereo not drawn)

>  <category>
middle bin

$$$$
>  <compound>
Cl.NC1CC1c1ccc(NC(=O)c2cccc(-c3ccsc3)c2)cc1 (stereo not drawn)

>  <category>
top bin

$$$$
>  <compound>
Cl.NC1CC1c1ccc(NC(=O)c2ccc(-c3ccoc3)cc2)cc1 (stereo not drawn)

>  <category>
bottom bin

$$$$
>  <compound>
NC1CC1c1ccc(NC(=O)c2ccc(-c3ccccc3)cc2)cc1 (stereo not drawn)

>  <category>
middle bin

$$$$
>  <compound>
Cl.NC1CC1c1ccc(NC(=O)c2cccc(-c3ccncc3)c2)cc1 (stereo not drawn)

>  <category>
middle bin

$$$$
>  <compound>
Cl.NC1CC1c1ccc(NC(=O)c2cccc(-c3ccoc3)c2)cc1 (stereo not drawn)

>  <category>
middle bin

$$$$
>  <compound>
Cl.NC1CC1c1ccc(NC(=O)c2cccc(-c3cccs3)c2)cc1 (stereo not drawn)

>  <category>
top bin

$$$$
>  <compound>
Cl.NC1CC1c1ccc(NC(=O)c2ccc(-c3ccncc3)cc2)cc1 (stereo not drawn)

>  <category>
bottom bin

$$$$
>  <compound>
Cl.NC1CC1c1ccc(NC(=O)c2ccc(-c3ccco3)cc2)cc1 (stereo not drawn)

>  <category>
bottom bin

$$$$

###

Biological target: hMAO-A (Homo sapiens)
Construct: purchased Sigma-Aldrich
Sequence (P21397 1-527): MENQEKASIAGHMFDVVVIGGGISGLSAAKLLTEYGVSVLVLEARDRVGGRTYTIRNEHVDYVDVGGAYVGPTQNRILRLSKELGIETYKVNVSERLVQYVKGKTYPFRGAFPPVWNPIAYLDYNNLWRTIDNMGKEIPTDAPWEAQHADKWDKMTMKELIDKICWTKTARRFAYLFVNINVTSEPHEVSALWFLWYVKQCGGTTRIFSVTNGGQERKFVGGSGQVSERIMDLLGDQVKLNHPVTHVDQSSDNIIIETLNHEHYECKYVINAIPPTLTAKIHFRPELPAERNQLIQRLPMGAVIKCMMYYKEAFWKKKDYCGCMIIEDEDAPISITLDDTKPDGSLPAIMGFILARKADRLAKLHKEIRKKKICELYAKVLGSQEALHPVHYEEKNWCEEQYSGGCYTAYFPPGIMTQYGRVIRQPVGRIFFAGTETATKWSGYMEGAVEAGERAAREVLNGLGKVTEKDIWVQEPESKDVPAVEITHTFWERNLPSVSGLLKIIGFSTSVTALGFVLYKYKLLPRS
Assay: Anti-MAO assay (Amplex Red, p-tyramine)
Type: biochemical
Details: IC50 MAO-B/IC50 MAO-A
Parameter MAO Selectivity Index: see the listing below.

>  <compound>
Cl.NC1CC1c1ccc(NC(=O)c2ccc(-c3ccncc3)cc2)cc1 (stereo not shown)

>  <MAO Selectivity Index>
5.2

$$$$
>  <compound>
Cl.NC1CC1c1ccc(NC(=O)c2ccc(-c3ccco3)cc2)cc1 (stereo not shown)

>  <MAO Selectivity Index>
1.7

$$$$
>  <compound>
Cl.NC1CC1c1ccc(NC(=O)c2ccc(-c3ccsc3)cc2)cc1 (stereo not shown)

>  <MAO Selectivity Index>
1.6

$$$$
>  <compound>
Cl.NC1CC1c1ccc(NC(=O)c2ccc(-c3cccs3)cc2)cc1 (stereo not shown)

>  <MAO Selectivity Index>
1.3

$$$$
>  <compound>
Cl.NC1CC1c1ccc(NC(=O)c2cccc(-c3ccncc3)c2)cc1 (stereo not shown)

>  <MAO Selectivity Index>
66

$$$$
>  <compound>
Cl.NC1CC1c1ccc(NC(=O)c2cccc(-c3ccco3)c2)cc1 (stereo not shown)

>  <MAO Selectivity Index>
9.5

$$$$
>  <compound>
Cl.NC1CC1c1ccc(NC(=O)c2cccc(-c3ccccc3)c2)cc1 (stereo not shown)

>  <MAO Selectivity Index>
11.7

$$$$
>  <compound>
Cl.NC1CC1c1ccc(NC(=O)c2ccc(-c3ccoc3)cc2)cc1 (stereo not shown)

>  <MAO Selectivity Index>
0.6

$$$$
>  <compound>
Cl.NC1CC1c1ccc(NC(=O)c2cccc(-c3cccs3)c2)cc1 (stereo not shown)

>  <MAO Selectivity Index>
15.3

$$$$
>  <compound>
Cl.NC1CC1c1ccc(NC(=O)c2cccc(-c3ccoc3)c2)cc1 (stereo not shown)

>  <MAO Selectivity Index>
0.5

$$$$
